Molecular target: T1, Extracellular domain (ECD) of the canine IL-4 receptor alpha-V5 epitope-AviTag-His Tag (canine)
T1 construct: monomeric form isolated by size exclusion; also called canine IL-4RA-V5-Avi-His; canine IL-4RA
T1 chain: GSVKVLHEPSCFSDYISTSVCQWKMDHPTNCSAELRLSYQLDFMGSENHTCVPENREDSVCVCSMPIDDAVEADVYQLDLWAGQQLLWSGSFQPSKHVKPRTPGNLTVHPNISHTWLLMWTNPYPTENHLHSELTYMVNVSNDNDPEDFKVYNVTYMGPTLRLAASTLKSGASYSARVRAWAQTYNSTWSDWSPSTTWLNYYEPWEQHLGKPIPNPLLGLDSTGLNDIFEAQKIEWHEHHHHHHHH
Assay: SPR, Fab-SASA captured on BSA;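 note: biacore T200 SPR, Fab-SASA variants from E. coli conditioned medium captured on BSA-coated CM5 chip, canine IL-4RA injected 120 s then 420 s dissociation, 1:1 model fit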
reported.endpoint: koff (s⁻¹)
The response must be a number in s⁻¹ with no trailing unit.

Task item: Look up koff for this binder: TB640_005 Fab-SASA VH-L101K (Fab, V domains shown, not shown: SASA tag then His-tag) VH: EVQLVESGGDLVKPGGSLRLSCVASGFTFRDYAMTWVRQAPGKGLQWVSLISGSGGKTYYADAVKGRFTISRDNAKNTLYLQMNSLRAEDTAVYYCAVDRKTKTIRPQYYGLWVWGQGTLVTVSS VL: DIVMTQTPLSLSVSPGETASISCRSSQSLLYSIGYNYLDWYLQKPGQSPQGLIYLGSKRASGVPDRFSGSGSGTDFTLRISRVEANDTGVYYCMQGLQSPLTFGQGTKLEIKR
Reply: 0.000623

Task item: Look up koff for this binder: TB640_005 Fab-SASA VH-S52N (Fab, V domains shown, not shown: SASA tag then His-tag) VH: EVQLVESGGDLVKPGGSLRLSCVASGFTFRDYAMTWVRQAPGKGLQWVSLINGSGGKTYYADAVKGRFTISRDNAKNTLYLQMNSLRAEDTAVYYCAVDRLTKTIRPQYYGLWVWGQGTLVTVSS VL: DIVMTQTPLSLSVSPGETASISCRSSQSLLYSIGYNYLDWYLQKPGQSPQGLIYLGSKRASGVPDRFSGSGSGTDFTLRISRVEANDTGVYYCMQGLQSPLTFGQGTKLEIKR
Reply: 0.000112

Task item: Look up koff for this binder: TB640_005 Fab-SASA VL-L101N (Fab, V domains shown, not shown: SASA tag then His-tag) VH: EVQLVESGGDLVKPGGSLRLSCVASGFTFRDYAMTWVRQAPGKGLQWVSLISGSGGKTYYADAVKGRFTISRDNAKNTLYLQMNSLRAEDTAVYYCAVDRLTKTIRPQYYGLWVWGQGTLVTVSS VL: DIVMTQTPLSLSVSPGETASISCRSSQSLLYSIGYNYLDWYLQKPGQSPQGLIYLGSKRASGVPDRFSGSGSGTDFTLRISRVEANDTGVYYCMQGLQSPNTFGQGTKLEIKR
Reply: 0.00321
